Taken from patent US20200071310A1.

- Target or system: full length Keap1 protein / full length NRF2 protein (Homo sapiens, UniProt Q14145)
- Construct: full length NRF2 protein and full length Keap1 protein (Keap1 exists a dimer) are used; His
- Sequence (Q14145 whole entry): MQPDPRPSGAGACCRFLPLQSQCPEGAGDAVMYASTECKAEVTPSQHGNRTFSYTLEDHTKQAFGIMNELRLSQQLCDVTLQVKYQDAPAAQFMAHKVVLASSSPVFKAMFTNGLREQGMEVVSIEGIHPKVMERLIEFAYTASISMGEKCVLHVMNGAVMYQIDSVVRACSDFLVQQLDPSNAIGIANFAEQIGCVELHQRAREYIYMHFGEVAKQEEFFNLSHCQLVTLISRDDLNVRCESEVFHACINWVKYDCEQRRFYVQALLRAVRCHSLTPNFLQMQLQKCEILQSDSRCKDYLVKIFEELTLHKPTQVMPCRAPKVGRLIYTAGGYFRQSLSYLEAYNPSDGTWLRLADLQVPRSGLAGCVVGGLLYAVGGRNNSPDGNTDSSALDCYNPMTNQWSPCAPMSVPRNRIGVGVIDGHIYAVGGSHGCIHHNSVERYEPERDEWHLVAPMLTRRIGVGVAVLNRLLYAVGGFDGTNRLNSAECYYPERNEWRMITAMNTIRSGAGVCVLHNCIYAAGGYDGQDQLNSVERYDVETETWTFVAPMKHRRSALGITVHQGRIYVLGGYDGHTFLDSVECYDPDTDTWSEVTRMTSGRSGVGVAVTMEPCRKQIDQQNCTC
- Protocol notes: NRF2-Keap1 TR-FRET Low Protein Assay
What EC50 was measured for each of the following?

Hi there! I need EC50 for each item below, if you can.
1. Cn1cc([C@@H]2C[C@H]2c2c(C(=O)O)cnn2-c2cccc(CN3Cc4ncccc4OC(C)(C)C3)c2)nn1 (racemic)
2. CCCCCCN(Cc1cccc(-n2ncc(C(=O)O)c2[C@@H]2C[C@H]2c2cnn(C)c2)c1)S(=O)(=O)c1ccccc1C (racemic)
3. Cn1cc([C@@H]2C[C@H]2c2c(C(=O)O)cnn2-c2cccc(Cn3ccnc3CC3CCCCCC3)c2)nn1 (racemic)
4. COc1cc([N+](=O)[O-])ccc1S(=O)(=O)N(C)Cc1cccc(-n2ncc(C(=O)O)c2[C@@H]2C[C@H]2c2cn(C)nn2)c1 (racemic)

1: 100 to 1000 nM; 2: 10000 to 100000 nM; 3: 10 to 100 nM; 4: 1000 to 10000 nM

====

- Tested on: NQO1 specific enzyme activity in BEAS-2B cells
- Protocol notes: BEAS-2B NQO1 MTT Assay
- Type: cell-based
- Stated conditions: Homo sapiens; NQO1 specific activity induction, BEAS-2B cells, 48 hours; read-out: EC50
Assay endpoint: EC50

>>> print(df.to_string())
                                   compound                          target_or_system  assay_endpoint    measured_value
0  COc1ccc(Br)cc1S(=O)(=O)N(C)Cc1cccc(-n2ncc(C(=O)O)c2[C@@H]2C[C@H]2c2cn(C)nn2)c1 (racemic) [Example 43]  NQO1 specific enzyme activity in BEAS-2B cells            EC50  1000 to 10000 nM

// each compound listed below needs its EC50
1. COc1ccc(Cl)cc1S(=O)(=O)N(C)Cc1cccc(-n2ncc(C(=O)O)c2[C@@H]2C[C@H]2c2cn(C)nn2)c1 (racemic) [Example 40]
2. CCCN(Cc1cccc(-n2ncc(C(=O)O)c2[C@@H]2C[C@H]2c2cn(C)nn2)c1)S(=O)(=O)c1ccccc1C (racemic) [Example 50]

["1000 to 10000 nM", "10 to 100 nM"]

====

- Target or system: full length Keap1 protein / full length NRF2 protein (Homo sapiens, UniProt Q14145)
- Construct: full length NRF2 protein and full length Keap1 protein (Keap1 exists a dimer) are used; His
- Protocol notes: NRF2-Keap1 TR-FRET Low Protein Assay
Assay endpoint: EC50

Molecule	EC50
CC(c1cccc(-n2ncc(C(=O)O)c2[C@@H]2C[C@H]2c2cn(C)nn2)c1)N1C[C@@H](C)Cc2ccc(C(F)(F)F)cc2S1(=O)=O (single isomer, unassigned)	0.01 to 0.1 µM

Provide reported EC50 for each item, in the same order as listed.
1. C[C@H]1Cc2ccc(C(F)(F)F)cc2S(=O)(=O)N([C@H]2CCc3c2cccc3-n2ncc(C(=O)O)c2[C@@H]2C[C@H]2c2cn(C)nn2)C1 [Example 26a]
2. CC[C@H]1Cc2ccccc2CN(Cc2cccc(-n3ncc(C(=O)O)c3[C@@H]3C[C@H]3c3cn(C)nn3)c2)C1
3. CN(Cc1cccc(-n2ncc(C(=O)O)c2[C@@H]2C[C@H]2c2cn(C)nn2)c1)S(=O)(=O)c1ccccc1 (racemic)
4. CC[C@@H]1CN(Cc2cccc(-n3ncc(C(=O)O)c3[C@@H]3C[C@H]3c3cn(C)nn3)c2)Cc2ccccc2O1 (racemic)
5. Cn1cc([C@@H]2C[C@H]2c2c(C(=O)O)cnn2-c2cccc(Cn3ccnc3CN3CCCCC3)c2)nn1 (racemic)
6. COc1ccccc1S(=O)(=O)N(C)Cc1cccc(-n2ncc(C(=O)O)c2[C@@H]2C[C@H]2c2cn(C)nn2)c1 (racemic)
7. CC[C@H]1Cc2ccc(C(F)(F)F)cc2S(=O)(=O)N(Cc2cccc(-n3ncc(C(=O)O)c3[C@@H]3C[C@H]3c3cn(C)nn3)c2)C1

0.1 to 1 µM
0.1 to 1 µM
1 to 10 µM
1 to 10 µM
0.1 to 1 µM
1 to 10 µM
< 0.01 µM
